Target: UniProt:Q9H0H5
Sequence (Q9H0H5 whole entry): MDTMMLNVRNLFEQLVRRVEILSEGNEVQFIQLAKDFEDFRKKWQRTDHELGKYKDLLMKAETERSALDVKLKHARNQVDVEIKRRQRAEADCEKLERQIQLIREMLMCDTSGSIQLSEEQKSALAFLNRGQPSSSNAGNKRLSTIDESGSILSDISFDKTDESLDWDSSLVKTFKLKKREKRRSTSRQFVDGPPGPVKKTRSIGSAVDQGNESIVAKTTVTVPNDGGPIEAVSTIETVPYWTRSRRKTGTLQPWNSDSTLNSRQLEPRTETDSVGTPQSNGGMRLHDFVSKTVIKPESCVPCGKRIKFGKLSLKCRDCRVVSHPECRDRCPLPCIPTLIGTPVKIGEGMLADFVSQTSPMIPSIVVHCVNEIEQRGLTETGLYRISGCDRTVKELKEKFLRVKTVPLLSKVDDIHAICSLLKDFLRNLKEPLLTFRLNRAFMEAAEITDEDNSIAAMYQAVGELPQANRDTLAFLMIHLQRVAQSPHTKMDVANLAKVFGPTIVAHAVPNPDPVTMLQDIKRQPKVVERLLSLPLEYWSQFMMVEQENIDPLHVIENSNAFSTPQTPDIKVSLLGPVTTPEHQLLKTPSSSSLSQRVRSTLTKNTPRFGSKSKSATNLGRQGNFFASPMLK
Test: MgcRacGAP GTPase-activating activity inhibitors, confirmation, biochemical, ADP Hunter fluorescence, primary and confirmatory (AID 624330)
Format: functional
Calls of active or inactive are those of the source. No rule for the calls is given here.
testReadout: IC50

compound	result
CCOc1cc(/C=N/n2c(C)nnc2C)ccc1O	103 µM (active)
CN(C)c1ccc(NC(=O)c2ccc3nsnc3c2)cc1	65.4 µM (active)
c1ccc2c(c1)c1c(c3ccccc32)CN2CCCC2C1 (configuration not stated)	111 µM (active)
CCN(CC)c1ccc(/C=C2\C(=O)c3ccc(C(=O)O)cc3C2=O)cc1	85.4 µM (active)
COc1cc(/C=N/NC(=O)c2cc3ccccc3[nH]2)ccc1O	17.8 µM (active)
c1ccc(-c2ccccc2OCCOCCN2CCOCC2)cc1	58.9 µM (active)
CCOc1ccc(/C=N/NC(=O)NC23CC4CC(CC(C4)C2)C3)cc1O	148 µM (active)
O=C(c1ccccc1)c1ccc(C(=O)N2CCN(c3ccc(O)cc3)CC2)cc1	34 µM (active)
CN(C)C=O.Oc1cccc2c(NC(S)=Nc3ccc(OC(F)F)cc3)cccc12	116 µM (active)
c1ccc(CN2CCN(Cc3ccc4ccccc4c3)CC2)cc1	123 µM (active)
CCc1cc(/C(Cc2csc(C)n2)=N/O)c(O)cc1O	28.3 µM (active)
CCN(CC)S(=O)(=O)c1cccc(-c2nnc(S)n2/N=C/c2ccc(OC(F)F)cc2)c1	147 µM (active)
